Molecular target: Bile acid receptor (Homo sapiens, UniProt Q96RI1)
Sequence (Q96RI1 whole entry): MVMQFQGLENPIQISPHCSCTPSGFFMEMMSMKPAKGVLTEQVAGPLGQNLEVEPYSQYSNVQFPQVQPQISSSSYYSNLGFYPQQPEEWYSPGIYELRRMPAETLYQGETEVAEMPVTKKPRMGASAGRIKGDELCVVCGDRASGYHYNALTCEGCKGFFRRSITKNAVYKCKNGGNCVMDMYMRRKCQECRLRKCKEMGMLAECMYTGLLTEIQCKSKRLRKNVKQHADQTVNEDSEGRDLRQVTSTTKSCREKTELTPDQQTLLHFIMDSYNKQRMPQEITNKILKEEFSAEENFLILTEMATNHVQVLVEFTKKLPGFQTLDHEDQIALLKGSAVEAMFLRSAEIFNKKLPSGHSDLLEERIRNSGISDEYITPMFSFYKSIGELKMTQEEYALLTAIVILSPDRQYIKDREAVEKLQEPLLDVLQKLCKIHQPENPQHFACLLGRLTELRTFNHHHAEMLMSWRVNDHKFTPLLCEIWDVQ
Assay: Agonist activity at human GST-tagged FXR ligand binding domain assessed as recruitment of Src-1 peptide […] by AlphaScreen assay
Details: read-out: EC50
EC50 listing for selected molecules.
quantity.measured: EC50 (nM)

1. Cc1cccc(-n2nc(C)c3c2NC(=O)[C@H](C)S[C@@H]3c2ccc(Oc3ccccc3)cc2)c1 (racemic)
2400
2. Cc1ccc(-n2nc(C)c3c2NC(=O)[C@H](C)S[C@@H]3c2ccc(Oc3ccccc3)cc2)cc1 (racemic)
3400
3. Cc1ccccc1-n1nc(C)c2c1NC(=O)[C@H](C)S[C@@H]2c1ccc(-c2cc3ccccc3o2)cc1 (racemic)
1500
4. Cc1nn(-c2ccccc2Br)c2c1C(c1ccc(Oc3ccccc3)cc1)SC(C)C(=O)N2 (mixture of isomers)
1800
